Ref: ChEMBL document CHEMBL5518220

Assay: Metabolic stability in human liver microsomes assessed as intrinsic clearance
Format: ADME, Microsome
Conditions: read-out: CLH
result type: CLint scaled

>  <chemical structure>
CCOc1cc2nc(CCOC)cn2cc1NC(=O)c1cccc(C(F)F)n1

>  <result type>
CLint scaled

>  <observed measurement>
32 mL/min/kg

$$$$
>  <chemical structure>
CC(C)Oc1cc2nc(C34COC(C)(C3)C4)cn2cc1C(=O)Nc1cccc(C(F)F)n1

>  <result type>
CLint scaled

>  <observed measurement>
< 5 mL/min/kg

$$$$
>  <chemical structure>
CCOc1cc2nc(C3(OC)CC3)cn2cc1NC(=O)c1cccc(C(F)F)n1

>  <result type>
CLint scaled

>  <observed measurement>
68 mL/min/kg

$$$$
>  <chemical structure>
COc1cc(NC(=O)c2cccc(C(F)(F)F)n2)cn2cc(C3CCOCC3)nc12

>  <result type>
CLint scaled

>  <observed measurement>
< 5 mL/min/kg

$$$$

[Q] What value of measured CLint scaled is listed for CCOc1cc2nc(C(C)(C)O)cn2cc1NC(=O)c1cccc(C(F)F)n1 ?
[A] < 4.7 mL/min/kg
